- Tested on: TK-10 renal
- Method: NCI tumour cell line growth inhibition, 48 h
Measured property: TGI (µM)
Answers are plain numbers, in µM.

Worked examples follow.
{"Compound structure": "O=C(/N=C/c1c(O)c2ccccc2oc1=O)Oc1ccccc1", "Test value": 79.6}
{"Compound structure": "O=C(Oc1ccccc1)N1c2ccccc2[C@@]23O[C@]24CCC[C@H]3C#C/C=C\\C#C[C@H]14", "Test value": 47.8}
{"Compound structure": "Cc1c(C)n(-c2ccccc2)c2nc(S(C)(=O)=O)nc(S(C)(=O)=O)c12", "Test value": 3.55}

# next compound below
What measured TGI goes with O=C(/C=C/c1ccc(OCc2cccc(Cl)c2)cc1)NO ?
67.1

Provenance of the data: PubChem BioAssay (NCI)
